Below, each entry is listed alongside its reported gcPBM binding intensity (ln).
System: PfAP2-G AP2 domain (GST-tagged)
assaySummary: gcPBM binding intensity (ln(normalized median fluorescence intensity)); higher = stronger DNA binding
Over roughly 25,000 sequences, “ln(normalized median fluorescence intensity)” has its median near 10; the highest 2% begin near 12. This is one part of a sample in which the highest values are shown more often than they occur.
Respond with the number and no other words.

- AAAAATTTATTTAAAAGTACATAAAATAAAGGTGGA [XGTACX_site7591]: 11.4
- AAAAATATAATATAATGTACACAAAAAAAAAAAATC [XGTACX_site1427]: 11.4
- AAGATATGTACTAATACACACACATATATATATATA [CACACA_site8249]: 11.2
- GTACAAATGTTGTGTATATATACACACATACATATA [XGTACX_negctrl_site276]: 10.9
- AACAAATACGGACACACACACACACTAGAAAAAAAA [CACACA_site4442]: 11.4

// recorded gcPBM binding intensity (ln) for CATATTAGGACAAAGTGTACATATATATATATATAT [XGTACX_site1172] : 11.4

// recorded gcPBM binding intensity (ln) for TATGTAACAAAAAAAAGTACACATATATATAGTGTA [XGTACX_site7772] : 11.6

// recorded gcPBM binding intensity (ln) for ATAATCTGACAAATGTGTACACATATATATATATAT [XGTACX_site2379] : 11.6

// recorded gcPBM binding intensity (ln) for ATCTGACAAAAGTGTACACATATATATATATATATA [CACACA_site4814] : 11.7

====

Below, each entry is listed alongside its reported gcPBM binding intensity (ln).
System: PfAP2-G AP2 domain (GST-tagged)
assaySummary: gcPBM binding intensity (ln(normalized median fluorescence intensity)); higher = stronger DNA binding
The full ranking holds about 25,000 sequences; the median of “ln(normalized median fluorescence intensity)” is about 10, and the highest 2% start at about 12. Shown is part of a subset that was picked to be rich in the highest values.
Respond with the number and no other words.

Example sequences with recorded gcPBM binding intensity (ln):
* ATATAAGATTTAAGAAGTACAATTATACAGTAGATC [XGTACX_site7501] | 11.4
* TATATTTTTTTAAAAAGTACTTTGTATATATATATA [XGTACX_site1300] | 11.1
* GTATATTTTTAAAGGTGTACTTTTTTTTTTTTTTTT [XGTACX_site721] | 11.8
* TTTTTTATTTGACAAGCACACACTTAAATATATATA [CACACA_site3358] | 10.2
* TGAAATTTTTATACATGTACAAAATTAAATATAACA [XGTACX_site7324] | 10.8

PfAP2-G AP2 domain (GST-tagged) data for GGGGGTAGGGGAAGAAGTACAATGATCACTACAGTA [XGTACX_site1169] ; its gcPBM binding intensity (ln): 11.9

PfAP2-G AP2 domain (GST-tagged) data for TTATCACATTATTGCACACACATAAAGAAAAAAATA [CACACA_site2841] ; its gcPBM binding intensity (ln): 10.4

PfAP2-G AP2 domain (GST-tagged) data for TATTTTATATAAAGGTGTACTTATACAAAAATATAT [XGTACX_site7435] ; its gcPBM binding intensity (ln): 11.5

PfAP2-G AP2 domain (GST-tagged) data for ATTCATAAAAAGAGGTGTACATTAATATAATATATA [XGTACX_site8283] ; its gcPBM binding intensity (ln): 11.5
